- Target system: T1, ST2 on the effector cells (KU812, KU812/NF-κB-1#, HUVEC, HMC-1) (human, UniProt Q01638 19-556)
- T1 sequence (looked up): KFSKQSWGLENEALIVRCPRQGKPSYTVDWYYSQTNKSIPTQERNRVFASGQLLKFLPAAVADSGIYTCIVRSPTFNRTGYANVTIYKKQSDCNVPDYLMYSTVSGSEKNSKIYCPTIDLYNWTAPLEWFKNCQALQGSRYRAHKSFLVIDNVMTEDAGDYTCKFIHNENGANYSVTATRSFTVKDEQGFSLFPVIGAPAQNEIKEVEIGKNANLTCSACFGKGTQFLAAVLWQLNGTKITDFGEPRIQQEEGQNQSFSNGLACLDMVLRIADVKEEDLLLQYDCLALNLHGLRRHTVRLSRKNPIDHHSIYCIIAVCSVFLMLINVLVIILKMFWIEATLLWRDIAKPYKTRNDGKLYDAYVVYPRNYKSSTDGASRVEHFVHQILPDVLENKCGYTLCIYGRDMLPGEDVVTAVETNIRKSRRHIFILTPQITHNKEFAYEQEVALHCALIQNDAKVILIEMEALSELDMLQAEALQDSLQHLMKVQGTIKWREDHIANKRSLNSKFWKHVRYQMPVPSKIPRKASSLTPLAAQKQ
- Assay details: cell-based or functional assay
Entries and their IC50, inhibition of HUVEC-IL6 production promoted by IL33
Dear colleague, please return just the value in µg/mL, with no unit written.

Binder	Numeric value
5888-379-H2L1 (antibody, human IgG4 S228P, kappa, V domains shown, Humanized antibody) VH: QVQLVQSGAEVKKPGASVKVSCKASGYTFINYGMNWVRQAPGQRLEWMGWINTYIGEPTYGDNFKGRVTITRDTSASTAYMELSSLRSEDTAVYYCAREGDAFAYWGQGTLVTVSS VL: DIQMTQSPSSLSASVGDRVTITCKSSQSLLYSGNQNNYLAWYQQKPGKVPKLLIYGASTRESGVPSRFSGSGSGTDFTLTISSLQPEDLATYYCQNDHSYPYTFGGGTKVEIKR	26.1
5887-41-H1L0 (antibody, human IgG4 S228P, kappa, V domains shown, Humanized antibody) VH: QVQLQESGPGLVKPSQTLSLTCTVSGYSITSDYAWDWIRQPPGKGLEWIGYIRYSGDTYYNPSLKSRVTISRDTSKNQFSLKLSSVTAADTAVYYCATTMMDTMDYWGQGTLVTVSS VL: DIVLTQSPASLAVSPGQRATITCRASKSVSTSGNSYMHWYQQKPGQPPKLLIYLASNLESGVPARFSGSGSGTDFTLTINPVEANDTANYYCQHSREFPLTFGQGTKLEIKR	1.31
Control antibody CNTO7160 (antibody, human IgG4 S228P, kappa, V domains shown, Known anti-ST2 control antibody) VH: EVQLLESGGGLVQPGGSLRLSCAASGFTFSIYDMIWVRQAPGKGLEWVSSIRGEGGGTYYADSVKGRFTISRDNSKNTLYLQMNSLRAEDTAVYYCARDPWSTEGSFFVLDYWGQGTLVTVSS VL: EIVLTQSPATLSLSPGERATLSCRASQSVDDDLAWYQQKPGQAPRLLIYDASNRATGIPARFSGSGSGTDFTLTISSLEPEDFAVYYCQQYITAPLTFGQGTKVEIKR	2.73

Next:
Task: Entry under review: 5888-153-H3L2 (antibody, human IgG4 S228P, kappa, V domains shown, Humanized antibody) VH: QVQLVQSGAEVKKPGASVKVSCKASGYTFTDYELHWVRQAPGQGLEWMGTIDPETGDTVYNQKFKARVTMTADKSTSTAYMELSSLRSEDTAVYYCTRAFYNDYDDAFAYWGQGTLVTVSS VL: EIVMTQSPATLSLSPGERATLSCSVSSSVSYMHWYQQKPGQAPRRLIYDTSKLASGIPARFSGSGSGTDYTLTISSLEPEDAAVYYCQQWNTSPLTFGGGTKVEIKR . Reported IC50, inhibition of HUVEC-IL6 production promoted by IL33?
Result: 3.69

Origin of measurements: patent US12624112
